Give pEC50 for every item shown.
biological target: full-length beta-Catenin (Uniprot ID P35222) (Homo sapiens (Human)) (UniProt P35222); test: fluorescence polarization competition; full-length beta-catenin; competitor 5FAM-TCF4(10-53) probe
Sequence (P35222 whole entry): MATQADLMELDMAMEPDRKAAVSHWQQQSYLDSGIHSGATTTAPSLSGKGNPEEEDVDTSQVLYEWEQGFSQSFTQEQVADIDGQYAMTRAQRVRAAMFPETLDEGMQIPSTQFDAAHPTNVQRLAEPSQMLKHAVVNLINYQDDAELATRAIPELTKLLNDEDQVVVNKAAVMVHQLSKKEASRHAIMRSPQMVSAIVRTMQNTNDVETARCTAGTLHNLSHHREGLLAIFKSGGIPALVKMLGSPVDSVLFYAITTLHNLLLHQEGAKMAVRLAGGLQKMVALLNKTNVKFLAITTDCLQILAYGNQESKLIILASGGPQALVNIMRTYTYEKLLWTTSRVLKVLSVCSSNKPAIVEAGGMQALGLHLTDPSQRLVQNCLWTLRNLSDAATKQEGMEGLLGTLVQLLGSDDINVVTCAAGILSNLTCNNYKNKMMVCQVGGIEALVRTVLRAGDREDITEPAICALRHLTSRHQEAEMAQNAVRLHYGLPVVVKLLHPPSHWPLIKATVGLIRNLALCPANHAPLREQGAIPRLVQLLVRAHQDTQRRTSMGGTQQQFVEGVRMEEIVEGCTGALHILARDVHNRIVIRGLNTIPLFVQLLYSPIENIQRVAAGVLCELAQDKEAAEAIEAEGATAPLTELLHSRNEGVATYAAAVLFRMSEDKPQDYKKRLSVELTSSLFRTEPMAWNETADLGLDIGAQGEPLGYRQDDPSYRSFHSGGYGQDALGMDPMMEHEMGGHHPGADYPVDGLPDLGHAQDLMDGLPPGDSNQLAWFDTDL
Starred links: 1 amine or outer side, 2 acyl side, 3 side chain; linkers in the order of their positions; H or OH if unused. Positions of bridges follow the written chain, without caps; N, C: chain ends. Non-standard residues stand in square brackets, D forms with d. Primed or numbered codes have the meaning given here. PyrS2″ = (S)-3-amino-1-((pent-4-en-1-yloxy)carbonyl)pyrrolidine-3-carboxylic acid (stapling residue), C=CCCCOC(=O)N1CC[C@@](N[*:1])(C(=O)[*:2])C1; B5(4) = 2,2-bis(4-pentenyl)glycine = 2-amino-2-(pent-4-en-1-yl)hept-6-enoic acid (stitching residue), C=CCCCC(CCCC=C)(N[*:1])C(=O)[*:2]; B5(21) = 2-amino-2-(pent-4-en-1-yl)hept-6-enoic acid, bis(4-pentenyl)glycine (stitching residue), C=CCCCC(CCCC=C)(N[*:1])C(=O)[*:2]; Phe(2-Cl) = N[C@@H](Cc1ccccc1Cl)C(=O)O; Bta = N[C@@H](Cc1csc2ccccc12)C(=O)O; αAllylPro = C=CC[C@@]1(C(=O)O)CCCN1; tBuAla = CC(C)(C)C[C@H](N)C(=O)O; Cha = N[C@@H](CC1CCCCC1)C(=O)O; S8 = C=CCCCCCC[C@](C)(N)C(=O)O
pEC50 here: minus log base 10 of the concentration, concentration in moles per litre.

Ask: Would you mind telling me what pEC50 value was observed for Ac-[αAllylPro]D[tBuAla][B5(21)]DTAAFL[PyrS2″][Phe(2-Cl)][Bta]Q-NH2 (staple 1-4, 4-11) [I-1169] ?
Result: 6.80

Ask: Data request, read-out pEC50, for Ac-[αAllylPro]D[Cha][B5(21)]DTAAFT[PyrS2″][Phe(2-Cl)][Bta]Q-NH2 (staple 1-4, 4-11) [I-1175]
Result: 7.62

Ask: Give the measured pEC50 of Ac-[αAllylPro]D[tBuAla][B5(4)]DDAAFL[S8][Phe(2-Cl)][Bta]H-NH2 (staple 1-4, 4-11) [I-1194] .
Result: 7.18

Ask: Report pEC50 for Ac-[αAllylPro]D[Cha][B5(21)]DTAAFL[PyrS2″][Phe(2-Cl)][Bta]Q-NH2 (staple 1-4, 4-11) [I-1176] please.
Result: 6.77

Ask: Using the record for Ac-[αAllylPro]D[tBuAla][B5(21)]DTAAFT[PyrS2″][Phe(2-Cl)][Bta]Q-NH2 (staple 1-4, 4-11) [I-1168] , report its pEC50.
Result: 7.60
